Test system: Plasmodium falciparum
Method Description: Antimalarial activity against transgenic Plasmodium falciparum 3D7 GFP16B gametocytes
Assay type: functional, organism-based

- Compound: "COc1ccc2nc3cc(Cl)ccc3c(Nc3cc(CN4CCCC4)c(O)c(CN4CCCC4)c3)c2n1 [PYRONARIDINE]"
  IC50: "23 nM"

====

Test system: Plasmodium falciparum
Method Description: Antimalarial activity against Plasmodium falciparum stage 3 to 5 gametocytes
Format: functional, organism-based
Value Type: IC50 (nM)

- Molecule: "CC[C@H](C)[C@H](NC(=O)[C@H]([C@@H](C)CC)N(C)C(C)=O)C(=O)N[C@H](C(=O)N[C@@H](CC(C)C)C(=O)[C@@]1(C)CO1)[C@@H](C)O [EPOXOMYCIN]"
  Numeric Readout: 2

====

Method Description: Half life in human plasma
Format: ADME, cell-free
Value Type: half-life (days)

- Molecule: "COc1cc(C)c2c(Oc3cccc(C(F)(F)F)c3)c(OC)cc(NC(C)CCCN)c2n1 (stereo unspecified)"
  Value Type: "half-life"
  Numeric Readout: 14

====

The entries below are paired with their reported pIC50.
Test system: Plasmodium falciparum
Method Description: Antimalarial activity against Plasmodium falciparum KT1 gametocytes
Type: functional, organism-based
pIC50: −log10 of the molar value.
Value Type: pIC50

- Molecule: "CN(C)Cc1ccc(Nc2c3ccccc3nc3ccccc23)cc1"
  Value Type: "pIC50"
  Numeric Readout: 6.22
- Molecule: "COc1ccc2nc3cc(Cl)ccc3c(Nc3cc(CN4CCCC4)c(O)c(CN4CCCC4)c3)c2n1 [PYRONARIDINE]"
  Value Type: "pIC50"
  Numeric Readout: 8.22
- Molecule: "COc1cc(NC(C)CCCN)c2ncccc2c1 (stereo not drawn) [PRIMAQUINE]"
  Value Type: "pIC50"
  Numeric Readout: 6.10
